Assign abundance fitness to each entry below.
B1: Gamma-crystallin S, residues 96 to 176; numbered along this chain, P22914 (parent)
chain: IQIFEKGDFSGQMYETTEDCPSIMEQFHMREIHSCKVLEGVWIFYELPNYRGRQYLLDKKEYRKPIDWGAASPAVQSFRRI

# Variants of: B1
# experimentSummary: abundance fitness (aPCA) (normalised: wild type 0, dead -1); higher = more abundant; growth selection in yeast, the domain comes from the species named
# experimentalSetup: Homo sapiens

**Query** Give me measured abundance fitness, please, for this variant: `W68E`
**Result** -0.059

**Query** Read off the recorded abundance fitness for `L47P`
**Result** -0.909

**Query** Name the recorded abundance fitness of the item `I1K` in your answer.
**Result** -0.732

**Query** Please give the documented abundance fitness of `R80E`
**Result** -0.253

**Query** Give me measured abundance fitness, please, for this variant: `W42R`
**Result** -0.986

**Query** Complete the entry with abundance fitness for `S34I`
**Result** -0.844

**Query** Find the measured abundance fitness of `I32V` and report it.
**Result** -0.029

**Query** Given the variant `L47H` , write its reported abundance fitness.
**Result** 0.065

**Query** Give me measured abundance fitness, please, for this variant: `W68T`
**Result** 0.089

**Query** Query abundance fitness for `C35S`
**Result** 0.052

**Query** State its abundance fitness for this variant: `S72R`
**Result** -0.154

**Query** Determine its reported abundance fitness: `P21I`
**Result** -0.053

**Query** Give the measured abundance fitness for `D67E`
**Result** 0.069

**Query** Indicate its recorded abundance fitness; the variant in question is `H33M`
**Result** 0.027

**Query** Give me measured abundance fitness, please, for this variant: `M13W`
**Result** -0.048

**Query** Give a short answer stating reported abundance fitness for `A70Q` .
**Result** -0.057

**Query** Tell me abundance fitness reported for `F9T`
**Result** -0.051

**Query** Output abundance fitness of `I23W`
**Result** 0.014

**Query** State its abundance fitness for this variant: `R51N`
**Result** -0.264

**Query** Respond only with abundance fitness recorded for `R51K`
**Result** 0.008

**Query** Give the reported abundance fitness for this variant. `I23Y`
**Result** 0.024

**Query** Please supply the value of reported abundance fitness for the item `L38E`
**Result** -0.004

**Query** Report abundance fitness, nothing else, for this variant: `H33R`
**Result** -0.047

**Query** For `L47A` , write its abundance fitness.
**Result** -0.047

**Query** State its abundance fitness: `T16P`
**Result** 0.102

**Query** Entry `S22F` needs its abundance fitness filled in; supply it.
**Result** -0.035

**Query** Tell me abundance fitness reported for `I32C`
**Result** 0.015

**Query** Consider the variant `V41Q` and give its recorded abundance fitness.
**Result** 0.055

**Query** Quote abundance fitness reported for `V41A` please.
**Result** 0.063

**Query** For the variant `T17F` , report abundance fitness.
**Result** -0.007

**Query** Recall and state the measured abundance fitness for `E18C` .
**Result** 0.006

**Query** Determine from records and report abundance fitness for `I43Y`
**Result** 0.047

**Query** Fill in reported abundance fitness for this entry: `F27G`
**Result** 0.017

**Query** Using the record for `R51Q` , state its measured abundance fitness.
**Result** -0.035

**Query** Note abundance fitness for the variant shown: `H28I`
**Result** 0.079

**Query** Return the recorded abundance fitness value; entry: `L57C`
**Result** -0.273

**Query** Fill in reported abundance fitness for this entry: `P73L`
**Result** 0.338

**Query** # return recorded abundance fitness for input `Y50V`
**Result** -1.02

**Query** Give the value of abundance fitness reported for the following: `G52E`
**Result** -0.949

**Query** For the variant `A71G` , give its reported abundance fitness.
**Result** 0.01

**Query** Provide only the value of recorded abundance fitness for `C35H`
**Result** -0.769

**Query** Supply measured abundance fitness of `K6F` in your reply.
**Result** 0.099

**Query** Provide one value: measured abundance fitness of `E15F`
**Result** -0.05

**Query** Supply abundance fitness value. Item: `W68A`
**Result** -0.167

**Query** Give the reported abundance fitness for this variant. `K60D`
**Result** -0.251

**Query** Quick one: give measured abundance fitness for `E5S`
**Result** -0.046

Just for reference, the Human Domainome abundance scans (Beltran et al. 2025) is where these values come from.
